# Test system: corn earworm (Helicoverpa zea)
# experimental-context: 50 μg/cm2, second-instar larvae, 5 days
value-kind: CEW 50: % mortality at 50 μg/cm2 against corn earworm in dietary tests

{"compound": "CS(=O)(CCc1ccc(Cl)nc1)=NC#N (stereo not shown)", "reported-value": "G (Inactive)"}
{"compound": "CC(C)(c1ccc(Cl)nc1)S(C)(=O)=NC#N (stereo not shown)", "reported-value": "G (Inactive)"}
{"compound": "CS(=O)(CCc1ccc(Cl)nc1)=N[N+](=O)[O-] (stereo not shown)", "reported-value": "G (Inactive)"}
{"compound": "CS(=O)(=NC#N)C(F)c1ccc(Cl)nc1 (stereo not shown)", "reported-value": "G (Inactive)"}
{"compound": "COC(=O)N=S1(=O)CCCC1Cc1ccc(Cl)nc1 (stereo not shown)", "reported-value": "G (Inactive)"}
{"compound": "CC[S@](=O)(=N[N+](=O)[O-])[C@@H](C)c1ccc(Cl)nc1", "reported-value": "G (Inactive)"}
{"compound": "N#CN=S1(=O)CCCC1c1ccccc1 (stereo not shown)", "reported-value": "G (Inactive)"}
{"compound": "CC(C)C1CCCS1(=O)=NC#N (stereo not shown)", "reported-value": "G (Inactive)"}
{"compound": "N#CN=[S@@]1(=O)CCCC1Cc1ccc(Cl)nc1 (stereo partly shown)", "reported-value": "G (Inactive)"}
{"compound": "CC[S@](=O)(=N[N+](=O)[O-])[C@H](C)c1ccc(Cl)nc1", "reported-value": "G (Inactive)"}
{"compound": "CC(C)[C@H]1CCCS1(=O)=NC#N (stereo partly shown)", "reported-value": "G (Inactive)"}
{"compound": "CS(=O)(=NC#N)C(Br)c1ccc(Cl)nc1 (stereo not shown)", "reported-value": "G (Inactive)"}
{"compound": "CS(=O)(=NC#N)C(Cl)c1ccc(Cl)nc1 (stereo not shown)", "reported-value": "G (Inactive)"}
{"compound": "CC[S@@](=O)(C[C@H](C)c1ccc(Cl)nc1)=NC#N", "reported-value": "G (Inactive)"}
{"compound": "CC(c1ccc(Cl)nc1)S(C)(=O)=NC#N (stereo not shown)", "reported-value": "G (Inactive)"}
{"compound": "N#CN=S1(=O)CCC[C@H]1Cc1ccc(Cl)nc1 (stereo partly shown)", "reported-value": "G (Inactive)"}
{"compound": "N#CN=S1(=O)CCCCC1Cc1ccc(Cl)nc1 (stereo not shown)", "reported-value": "G (Inactive)"}
{"compound": "CCS(=O)(=NC#N)C(C)c1ccc(Cl)nc1 (stereo not shown)", "reported-value": "G (Inactive)"}
{"compound": "CC(c1ccc(Cl)nc1)S(C)(=O)=N[N+](=O)[O-] (stereo not shown)", "reported-value": "G (Inactive)"}
{"compound": "C[C@H](c1ccc(Cl)nc1)[S@](C)(=O)=NC#N", "reported-value": "G (Inactive)"}
{"compound": "CCC(c1ccc(Cl)nc1)S(C)(=O)=NC#N (stereo not shown)", "reported-value": "G (Inactive)"}
{"compound": "O=[N+]([O-])N=S1(=O)CCCC1Cc1ccc(Cl)nc1 (stereo not shown)", "reported-value": "G (Inactive)"}

---

# System: beet armyworm (Spodoptera exigua)
# assay-details: Insecticidal test for beet armyworm in injection assays
# experimental-context: 1 h, read-out: BAW SYM: % showing intoxicated symptoms at 10 μg/larva against beet armyworm in injection tests

{"molecule": "CC(c1ccc(Cl)nc1)S(C)(=O)=NC#N (centres unmarked) [Compound 8]", "pest or weed control at 0.01 mg": "50 to 59%"}
{"molecule": "C[C@H](c1ccc(Cl)nc1)[S@](C)(=O)=NC#N [Compound 28]", "pest or weed control at 0.01 mg": "60 to 69%"}
{"molecule": "CCS(=O)(=NC#N)C(C)c1ccc(Cl)nc1 (centres unmarked) [Compound 18]", "pest or weed control at 0.01 mg": "< 50%"}
{"molecule": "CS(=O)(=NC#N)C(Cl)c1ccc(Cl)nc1 (centres unmarked) [Compound 23]", "pest or weed control at 0.01 mg": "< 50%"}
{"molecule": "CS(=O)(CCc1ccc(Cl)nc1)=NC#N (centres unmarked) [Compound 13]", "pest or weed control at 0.01 mg": "< 50%"}
{"molecule": "CC(CS(C)(=O)=N[N+](=O)[O-])c1ccc(Cl)nc1 (centres unmarked) [Compound 4]", "pest or weed control at 0.01 mg": "< 50%"}
{"molecule": "N#CN=S1(=O)CCCC1Cc1cnc(Cl)s1 (centres unmarked) [Compound 11]", "pest or weed control at 0.01 mg": "60 to 69%"}
{"molecule": "CC(C)C1CCCS1(=O)=NC#N (centres unmarked) [Compound 32]", "pest or weed control at 0.01 mg": "50 to 59%"}
{"molecule": "CC(C)(c1ccc(Cl)nc1)S(C)(=O)=NC#N (centres unmarked) [Compound 9]", "pest or weed control at 0.01 mg": "< 50%"}
{"molecule": "N#CN=S1(=O)CCCC1c1ccccc1 (centres unmarked) [Compound 22]", "pest or weed control at 0.01 mg": "< 50%"}
{"molecule": "CC(c1ccc(Cl)nc1)[S@](C)(=O)=NC#N (some centres unmarked) [Compound 29]", "pest or weed control at 0.01 mg": "90 to 100%"}

---

# Tested on: Colorado potato beetle (Leptinotarsa decemlineata)
# assay-details: Insecticidal test for Colorado potato beetle, foliar spray on tomato
# Type: in vivo
# experimental-context: 50 ppm, foliar spray, 5 days, Corrected % Control
value-kind: CPB 50: % control at 50 ppm against Colorado potato beetle in foliar spray tests

{"compound": "N#CN=[S@@]1(=O)CCCC1Cc1ccc(Cl)nc1 (some centres unmarked)", "system-under-test": "Colorado potato beetle (Leptinotarsa decemlineata)", "reported-value": "A (90-100)"}
{"compound": "CC(c1ccc(Cl)nc1)S(C)(=O)=NC#N (centres unmarked)", "system-under-test": "Colorado potato beetle (Leptinotarsa decemlineata)", "reported-value": "A (90-100)"}
{"compound": "CS(=O)(Cc1ccc(Cl)nc1)=NC#N (centres unmarked)", "system-under-test": "Colorado potato beetle (Leptinotarsa decemlineata)", "reported-value": "B (80-89)"}
{"compound": "O=[N+]([O-])N=[S@@]1(=O)CCCC1Cc1ccc(Cl)nc1 (some centres unmarked)", "system-under-test": "Colorado potato beetle (Leptinotarsa decemlineata)", "reported-value": "A (90-100)"}
{"compound": "O=[N+]([O-])N=S1(=O)CCCC1Cc1ccc(Cl)nc1 (centres unmarked)", "system-under-test": "Colorado potato beetle (Leptinotarsa decemlineata)", "reported-value": "B (80-89)"}

---

# Tested on: fruit fly (Drosophila melanogaster)
# experimental-context: 25 μg/cm2, 48 h
value-kind: FF 25: % mortality at 25 μg/cm2 against fruit fly in dietary tests

{"compound": "CC[S@](=O)(=NC#N)[C@@H](C)c1ccc(Cl)nc1", "reported-value": "F (Less than 50)"}
{"compound": "CC[S@](=O)(=N[N+](=O)[O-])[C@H](C)c1ccc(Cl)nc1", "reported-value": "F (Less than 50)"}
{"compound": "Cc1ccc(CC2CCCS2(=O)=NC#N)cn1 (stereo not shown)", "reported-value": "G (Inactive)"}
{"compound": "N#CN=S1(=O)CCCC1Cc1ccc(Cl)nc1 (stereo not shown)", "reported-value": "F (Less than 50)"}
{"compound": "CCOc1ccc(S(C)(=O)=NC#N)cn1 (stereo not shown)", "reported-value": "G (Inactive)"}
{"compound": "CC(c1ccc(Cl)nc1)[S@](C)(=O)=NC#N (stereo partly shown)", "reported-value": "A (90-100)"}
{"compound": "CC(c1ccc(Cl)nc1)S(C)(=O)=N[N+](=O)[O-] (stereo not shown)", "reported-value": "F (Less than 50)"}
{"compound": "CS(=O)(CCc1ccc(Cl)nc1)=NC#N (stereo not shown)", "reported-value": "G (Inactive)"}
{"compound": "C[C@H](c1ccc(Cl)nc1)[S@](C)(=O)=NC#N", "reported-value": "A (90-100)"}
{"compound": "CC(Cc1ccc(Cl)nc1)CS(C)(=O)=NC#N (stereo not shown)", "reported-value": "G (Inactive)"}
{"compound": "CC[S@](=O)(=N[N+](=O)[O-])[C@@H](C)c1ccc(Cl)nc1", "reported-value": "G (Inactive)"}
{"compound": "N#CN=S1(=O)CCCCC1", "reported-value": "G (Inactive)"}
{"compound": "CCS(=O)(=NC#N)C(C)c1ccc(Cl)nc1 (stereo not shown)", "reported-value": "G (Inactive)"}
{"compound": "CCC(c1ccc(Cl)nc1)S(C)(=O)=NC#N (stereo not shown)", "reported-value": "A (90-100)"}
{"compound": "N#CN=S1(=O)CCCCC1Cc1ccc(Cl)nc1 (stereo not shown)", "reported-value": "G (Inactive)"}
{"compound": "CC(C)C1CCCS1(=O)=NC#N (stereo not shown)", "reported-value": "G (Inactive)"}
{"compound": "CS(=O)(=NC#N)C(Cl)c1ccc(Cl)nc1 (stereo not shown)", "reported-value": "A (90-100)"}
{"compound": "CS(=O)(=NC#N)C(Br)c1ccc(Cl)nc1 (stereo not shown)", "reported-value": "A (90-100)"}
{"compound": "O=[N+]([O-])N=[S@@]1(=O)CCCC1Cc1ccc(Cl)nc1 (stereo partly shown)", "reported-value": "F (Less than 50)"}
{"compound": "CS(=O)(Cc1ccc(Cl)nc1)=NC#N (stereo not shown)", "reported-value": "A (90-100)"}
{"compound": "CS(=O)(=NC#N)C(Cc1ccccc1)c1ccc(Cl)nc1 (stereo not shown)", "reported-value": "G (Inactive)"}
